Target: T1, soluble human CTLA-4 expressed with a C-terminal myc-myc-polyhistidine tag (human)
T1 construct: soluble protein; also called hCTLA-4.mmh; hCTLA4.mmh
T1 sequence (chain, as listed by the source limits assumed): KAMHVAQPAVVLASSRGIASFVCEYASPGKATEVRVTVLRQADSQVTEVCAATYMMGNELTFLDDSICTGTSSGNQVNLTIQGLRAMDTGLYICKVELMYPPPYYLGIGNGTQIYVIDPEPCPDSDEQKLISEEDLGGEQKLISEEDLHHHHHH
Experiment: SPR, mAb capture, 25 C
QUANTITY: t1/2 (min)
Use min as the unit, but write only the number.

Guide cases for t1/2, answers given:
BINDER	READING
H1H19303P (antibody, human IgG1, kappa, V domains shown, also called REGN4659) VH: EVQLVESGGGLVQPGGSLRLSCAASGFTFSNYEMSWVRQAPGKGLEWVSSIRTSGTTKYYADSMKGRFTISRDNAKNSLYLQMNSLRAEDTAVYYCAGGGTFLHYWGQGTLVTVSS VL: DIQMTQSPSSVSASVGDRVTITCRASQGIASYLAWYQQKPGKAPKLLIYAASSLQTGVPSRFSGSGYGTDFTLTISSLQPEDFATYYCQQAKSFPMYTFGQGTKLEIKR	5.8
H1H20386N (antibody, human IgG1, V domains shown, here with human IgG1 Fc (H1H)) VH: QVQLVESGGGVVQPGRSLRLSCAASGFTVNRYGIHWVRQAPGKGLEWVAVTWYDGRNKYFADSVKGRFSFSRDSSTNTLYLQMNSLRAEDTAVYYCARGGLFGYFDYWGQGTLVTVSS VL: EIVLTQSPDTLSLSPGERATLSCRASQSVAGSYLAWYQQKPGQAPRLLIYGASSRATGIPDRFSGSGSGTDFTLTISRLEPEDFAVYYCQQYGTSPWTFGQGTKVEIT	6
H1H19305P (antibody, human IgG1, V domains shown) VH: QVQLQESGPGLVKPSQTLSLTCTVSGGSITSGGYYWSWIRQHPGKGLEWIGYIFYSGITNYNPSLKSRVTISVDTSKNQFSLKLTSVTAADTAVYYCATYNSLRLYYGMDVWGQGTTVTVSS VL: DVVMTQSPLSLPVILGQPASISCRSSQSLVYGDGNTYLNWFQQRPGQSPRRLIYKVSNRDSGVPDRFSGSGSGTDFTLKISRVEAEDVGVYYCMQSTHWPLTFGGGTKVEIK	9.5

Which t1/2 is listed for H1H19281P (antibody, human IgG1, V domains shown) VH: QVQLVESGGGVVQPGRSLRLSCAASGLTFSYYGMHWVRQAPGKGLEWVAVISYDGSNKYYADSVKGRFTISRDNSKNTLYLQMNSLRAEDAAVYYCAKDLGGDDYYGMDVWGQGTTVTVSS VL: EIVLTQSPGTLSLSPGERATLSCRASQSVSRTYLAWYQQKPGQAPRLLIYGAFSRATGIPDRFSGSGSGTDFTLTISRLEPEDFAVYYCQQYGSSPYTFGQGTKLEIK ?
15.6

Values compiled from patent US20210040232A1.
